tested on: Human immunodeficiency virus 1; test: Inhibitory concentration against 181C mutant was determined; type: functional, organism-based; conditions: Human immunodeficiency virus 1; read-out: IC50
Reported log10 of IC50 values for a set of compounds
log10 IC50, nM

>>> measured("Cc1ccc(Oc2cn(Cc3ccccc3)c(=O)c(Nc3ccc(C#N)cc3)n2)c(C)c1")
3.20
>>> measured("Cc1ccccc1Oc1nc(Nc2ccc(C#N)cc2)c(=O)n(C)c1C")
3.40
>>> measured("Cc1ccc(Oc2cn(C)c(=O)c(Nc3ccc(C#N)cc3)n2)c(C)c1")
2.20

What log10 of IC50 value was documented for this compound, "Cc1cc(C)c(Sc2cn(C)c(=O)c(Nc3ccc(C#N)cc3)n2)c(C)c1" ? 3.00

What log10 of IC50 value was documented for this compound, "O=C1Nc2ccc(Cl)cc2[C@@](C#CC2CC2)(C(F)(F)F)O1" ? 0.30

What log10 of IC50 value was documented for this compound, "Cc1ccc(Oc2cn(C)c(=O)c(Nc3ccc(Cl)cc3)n2)c(C)c1" ? 3.70
